Test system: TO-3-N3 (biotin conjugate)
Assay: pull-down binding Z-score (relative to library population); higher = stronger binding
Settings: RNA library: Library-2
Mark rule not met for pull-down binding Z-score values under -0.4, and rule met for everything at or above.

# example entries with known answers
| Sequence chain | Discrete label |
| --- | --- |
| UUUUGACAUUACUUUCAAAGACAAAA [hsa-mir-548f-1] | rule not met |
| GGGCAUUCCGGAUAGGCCGAGAAAGUGUUG [hsa-mir-6723] | rule met |
| GGCAUCUAGGCUGUGCACAGUGACGCC [hsa-mir-4749] | rule not met |
| GAAAAGAACAAUCAAGGGUACACACCACUGGUUGUUACUCACAAUUUUGACUUCACUUUUAGUUUUAGUCCAGAGUACUCAAUGGUCUUUGUUCUUUUU | rule not met |
| UAUAAUAUGAGAGUUAUA | rule met |
| GCUGGUCGCGGGUUGUGGGGUUUAGGUCACCGGC [hsa-mir-5091] | rule met |

Proceed to the following item.
Q: Decide: pull-down binding Z-score of UGUGGACAUGUCAAUGACAUAUGGACAACAGUUUGGUCCAACUUAUUUGGAUGGAGCUGAUGUUACUAAAAUAAAACCUCAUAAUUCACA >= -0.4?
A: rule not met
